experimental-target: PLK1 T210D (h) (Homo sapiens, UniProt P53350, T210D)
Sequence (P53350 whole entry T210D): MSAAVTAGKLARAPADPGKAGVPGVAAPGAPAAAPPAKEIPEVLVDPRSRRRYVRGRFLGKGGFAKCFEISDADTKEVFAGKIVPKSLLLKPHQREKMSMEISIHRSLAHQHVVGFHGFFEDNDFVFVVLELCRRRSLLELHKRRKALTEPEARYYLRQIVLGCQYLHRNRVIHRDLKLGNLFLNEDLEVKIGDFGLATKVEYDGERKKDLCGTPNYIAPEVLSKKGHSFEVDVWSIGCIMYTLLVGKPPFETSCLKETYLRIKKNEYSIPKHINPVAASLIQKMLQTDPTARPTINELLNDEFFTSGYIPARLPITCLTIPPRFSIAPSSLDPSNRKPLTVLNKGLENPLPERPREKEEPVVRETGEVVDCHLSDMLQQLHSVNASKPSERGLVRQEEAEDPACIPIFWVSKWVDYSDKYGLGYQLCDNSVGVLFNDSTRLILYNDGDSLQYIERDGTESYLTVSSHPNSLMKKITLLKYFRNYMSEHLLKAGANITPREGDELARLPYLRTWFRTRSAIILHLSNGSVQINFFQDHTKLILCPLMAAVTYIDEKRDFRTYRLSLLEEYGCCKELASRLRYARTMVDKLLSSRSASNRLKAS
method: PLK1 human kinase inhibition, SPA
Format: biochemical
assay-conditions: read-out: PLK1 pIC50 (converted)
readout-name: IC50

The recorded IC50 for O=C1NCCOc2cccc(c2)-c2ccnc(n2)Nc2ccc(N3CCOCC3)c(c2)CN2CCC1CC2 is > 10 µM

Notebook: O=C1NCc2cccc(c2)-c2ccnc(n2)Nc2cc(ccc2Cl)CN2CCC1CC2 , IC50 read as > 10 µM

Notebook: COc1cc2cc(c1)Nc1nccc(n1)-c1ccc(cc1)CN(C)CCCNC(=O)CN1CCN(CC1)C2 , IC50 read as > 10 µM

Record summary for COc1ccc2cc1CN(C)CCCNC(=O)C1CCN(CC1)Cc1cc(Br)cc(c1)Nc1nccc-2n1 : reported IC50 = > 10 µM

Item: COc1ccc2cc1CNCCNC(=O)CN1CCN(CC1)Cc1cc(ccc1N1CCOCC1)Nc1nccc-2n1 | IC50: > 10 µM

Recorded IC50 (compound COc1ccc2cc1CN(C)CCNC(=O)CN1CCN(CC1)Cc1cc(Br)cc(c1)Nc1nccc-2n1 ): > 10 µM

COc1ccc2cc1CN(C)CCCNC(=O)CN1CCN(CC1)Cc1cc(Br)cc(c1)Nc1nccc-2n1 has a reported IC50 of > 10 µM

Value of measured IC50 for the entry CC1(C)NCc2cc(ccc2N2CCOCC2)Nc2nccc(n2)-c2cccc(c2)OCCCNC1=O : > 10 µM

----------
experimental-target: PLK2 (h) (Homo sapiens, UniProt Q9NYY3)
Sequence (Q9NYY3 whole entry): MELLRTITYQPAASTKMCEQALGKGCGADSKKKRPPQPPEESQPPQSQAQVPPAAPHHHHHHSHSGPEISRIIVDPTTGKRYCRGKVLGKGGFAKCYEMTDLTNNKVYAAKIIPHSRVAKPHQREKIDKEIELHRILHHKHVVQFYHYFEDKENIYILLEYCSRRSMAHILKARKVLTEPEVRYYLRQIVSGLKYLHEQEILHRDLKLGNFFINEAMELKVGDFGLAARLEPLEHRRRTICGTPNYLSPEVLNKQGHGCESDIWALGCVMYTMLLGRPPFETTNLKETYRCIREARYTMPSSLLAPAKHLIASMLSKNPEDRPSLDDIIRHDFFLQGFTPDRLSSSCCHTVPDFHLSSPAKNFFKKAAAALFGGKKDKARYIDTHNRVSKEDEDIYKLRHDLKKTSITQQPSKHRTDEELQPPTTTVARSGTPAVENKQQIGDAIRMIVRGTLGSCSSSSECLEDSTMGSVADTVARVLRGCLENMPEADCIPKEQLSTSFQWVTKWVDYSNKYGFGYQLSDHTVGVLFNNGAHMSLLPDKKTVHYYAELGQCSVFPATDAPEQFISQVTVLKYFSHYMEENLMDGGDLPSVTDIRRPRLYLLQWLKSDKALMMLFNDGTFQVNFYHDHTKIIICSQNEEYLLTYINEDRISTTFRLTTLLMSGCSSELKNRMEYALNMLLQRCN
method: PLK2 human kinase inhibition, SPA
Type: biochemical
assay-conditions: read-out: PLK2 pIC50 (converted)
I'd be grateful if you could share measured IC50 for these entries.

Entry COc1ccc2cc1CN(C)CCNC(=O)[C@@H]1CCCN1Cc1cc(cc(NC(C)C)c1)Nc1nccc-2n1 — recorded IC50 = > 10 µM

According to the records, this compound COc1ccc2cc1CN(C)CCNC(=O)[C@@H]1CCCN1Cc1cc(Br)cc(c1)Nc1nccc-2n1 displays IC50 of > 10 µM

Entry COc1ccc2cc1CN1CCC(CC1)C(=O)N(C)CCCN(C)c1ccc(cn1)-c1ccnc(n1)N2 , IC50 reported as > 10 µM

So, COc1ccc2cc1CN(C)CCCNC(=O)[C@@H]1CCCN1Cc1cc(cc(N3CCOCC3)c1)Nc1nccc-2n1 ? Its IC50 was > 10 µM

O=C1CN2CCN(CC2)Cc2cccc(c2)Nc2nccc(n2)-c2ccnc(c2)CCCN1 yielded IC50 of > 10 µM

The recorded IC50 for COc1ccc2cc1CN(C)CCCNC(=O)[C@@H]1CCCN1Cc1cccc(c1)Nc1nccc-2n1 is > 10 µM

Per the record, CN1CCNC(=O)CN2CCN(CC2)Cc2cc(Br)cc(c2)Nc2nccc(n2)-c2ccc(cc2)C1 has IC50 of > 10 µM

----------
Give IC50 for every item shown.
experimental-target: CDK1/CyclinB (h) (Homo sapiens, UniProt P06493)
Sequence (P06493 whole entry): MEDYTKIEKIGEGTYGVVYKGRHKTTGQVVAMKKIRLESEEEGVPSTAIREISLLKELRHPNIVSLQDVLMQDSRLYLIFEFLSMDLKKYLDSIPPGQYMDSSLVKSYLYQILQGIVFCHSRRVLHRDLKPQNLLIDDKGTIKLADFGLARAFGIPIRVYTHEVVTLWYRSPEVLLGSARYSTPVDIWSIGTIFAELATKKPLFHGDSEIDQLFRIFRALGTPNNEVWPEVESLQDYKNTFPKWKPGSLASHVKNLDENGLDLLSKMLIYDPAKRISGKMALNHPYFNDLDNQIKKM
Sequence (P14635 whole entry partner): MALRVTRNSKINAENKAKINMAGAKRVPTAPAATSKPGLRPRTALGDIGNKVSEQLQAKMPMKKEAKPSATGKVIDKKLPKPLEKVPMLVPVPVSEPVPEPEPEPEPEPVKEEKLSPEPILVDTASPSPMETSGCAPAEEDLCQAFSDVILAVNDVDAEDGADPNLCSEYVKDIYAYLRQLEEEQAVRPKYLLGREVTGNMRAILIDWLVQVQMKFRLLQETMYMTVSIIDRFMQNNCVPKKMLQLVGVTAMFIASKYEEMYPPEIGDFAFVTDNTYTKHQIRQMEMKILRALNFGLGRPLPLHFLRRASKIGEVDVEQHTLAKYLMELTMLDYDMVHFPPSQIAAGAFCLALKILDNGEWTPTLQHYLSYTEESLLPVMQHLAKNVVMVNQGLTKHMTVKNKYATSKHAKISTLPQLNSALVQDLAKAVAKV
method: CDK1/CyclinB human kinase inhibition, Invitrogen's FRET assay (Z'lyte)
Format: biochemical
assay-conditions: read-out: CDK1 pIC50 (converted)
Give your result in µM as a bare value.

Looking up O=C1NCc2cccc(c2)-c2ccnc(n2)Nc2cccc(c2)CN2CCC1CC2 , I found its IC50 recorded as 0.372

O=C1NCc2cccc(c2)-c2ccnc(n2)Nc2cc(ccc2Cl)CN[C@H]1Cc1ccccc1 yielded IC50 of 5.62

Looking up C[C@@H]1NCCc2cccc(c2)-c2ccnc(n2)Nc2ccc(N3CCOCC3)c(c2)CNC1=O , I see its IC50 listed as 0.151

The value of IC50 measured for the molecule C[C@@H]1NCc2cc(ccc2N2CCOCC2)Nc2nccc(n2)-c2cccc(c2)CNC1=O turned out to be 7.59

----------
experimental-target: CDK1/CyclinB (h) (Homo sapiens)
method: CDK1/CyclinB human kinase inhibition, Invitrogen's FRET assay (Z'lyte)
Assay type: biochemical
assay-conditions: read-out: CDK1 pIC50 (converted)
readout-name: IC50

Value of measured IC50 for the entry COc1cc2cc(c1)Nc1nccc(n1)-c1ccc(cc1)CN(C)CCNC(=O)[C@@H]1CCCN1C2 [Compound 158] : 8.71 µM

Documented IC50 of O=C1CN2CCN(CC2)Cc2cccc(c2)Nc2nccc(n2)-c2cccc(c2)CN1 [Compound 196] : > 10 µM

The compound listed as CN1CCNC(=O)[C@H](CO)NCc2cccc(c2)Nc2nccc(n2)-c2ccc(cc2)C1 [Compound 114] shows IC50 equal to > 10 µM

For this compound ( O=C1NCc2cccc(c2)-c2ccnc(n2)Nc2ccc(N3CCOCC3)c(c2)CN2C[C@@H](O)C[C@@H]12 [Compound 27] ), measured IC50 is 1.91 µM

Per the records, this compound ( O=C1NCc2ccc(cc2)-c2ccnc(n2)Nc2ccc(N3CCOCC3)c(c2)CN2CCC1CC2 [Compound 12] ) has IC50 equal to > 10 µM

The compound COc1ccc2cc1CN(C)CCNC(=O)[C@H](CO)NCc1cc(Br)cc(c1)Nc1nccc-2n1 [Compound 119] showed IC50 equal to > 10 µM

Lookup result for COc1cc2cc(c1OC)CN1CCC[C@H]1C(=O)NCc1cccc(c1)-c1ccnc(n1)N2 [Compound 23] ; measured IC50: > 10 µM

So for O=C1NCCOc2ccc(cc2)-c2ccnc(n2)Nc2ccc(N3CCOCC3)c(c2)CN2CCC1CC2 [Compound 6] , the logged IC50 turned out to be 0.195 µM

----------
experimental-target: CDK4/CyclinD1 (h) (Homo sapiens)
Sequence (P11802 whole entry): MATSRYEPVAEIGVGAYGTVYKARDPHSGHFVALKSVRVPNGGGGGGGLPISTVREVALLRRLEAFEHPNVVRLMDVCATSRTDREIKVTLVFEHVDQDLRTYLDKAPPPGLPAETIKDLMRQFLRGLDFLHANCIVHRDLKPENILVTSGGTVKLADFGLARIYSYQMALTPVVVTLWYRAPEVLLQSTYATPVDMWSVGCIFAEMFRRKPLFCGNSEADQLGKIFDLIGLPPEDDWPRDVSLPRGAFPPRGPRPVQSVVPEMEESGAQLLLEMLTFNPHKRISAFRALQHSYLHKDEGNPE
Sequence (P24385 whole entry partner): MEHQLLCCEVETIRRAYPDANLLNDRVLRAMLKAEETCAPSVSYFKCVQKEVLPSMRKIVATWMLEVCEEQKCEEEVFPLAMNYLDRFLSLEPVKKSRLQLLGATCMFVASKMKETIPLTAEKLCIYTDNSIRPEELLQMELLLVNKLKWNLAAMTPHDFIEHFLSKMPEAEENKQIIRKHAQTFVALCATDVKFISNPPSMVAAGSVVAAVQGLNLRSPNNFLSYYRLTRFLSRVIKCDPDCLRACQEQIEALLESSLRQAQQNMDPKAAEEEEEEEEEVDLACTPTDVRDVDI
method: CDK4/CyclinD1 human kinase inhibition, SPA with GST-pRb substrate
Assay type: biochemical
assay-conditions: read-out: CDK4 pIC50 (converted)
readout-name: IC50 (µM)
Give just the number in µM; leave the unit off.

Value of IC50 reported for the compound C[C@H]1NCc2cc(ccc2N2CCOCC2)Nc2nccc(n2)-c2cccc(c2)OCCCNC1=O [Compound 87] is 1.26

IC50 recorded for this compound, CN1CCC(NC(=O)c2cc3cc(c2)Nc2nccc(n2)-c2cccc(c2)CNC(=O)[C@@H]2CCCN2C3)CC1 [Compound 38] , is 3.47

----------
experimental-target: AuroraB (h) (Homo sapiens, UniProt Q96GD4)
Sequence (Q96GD4 whole entry): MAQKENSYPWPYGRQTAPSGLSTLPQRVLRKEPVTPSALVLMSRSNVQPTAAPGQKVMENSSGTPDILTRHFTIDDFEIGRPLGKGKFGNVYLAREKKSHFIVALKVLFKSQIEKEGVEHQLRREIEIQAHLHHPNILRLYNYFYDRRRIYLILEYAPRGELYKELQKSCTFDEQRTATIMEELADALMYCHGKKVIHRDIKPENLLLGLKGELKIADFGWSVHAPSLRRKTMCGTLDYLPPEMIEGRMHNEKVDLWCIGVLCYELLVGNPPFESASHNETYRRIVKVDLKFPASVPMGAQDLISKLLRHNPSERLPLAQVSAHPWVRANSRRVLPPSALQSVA
method: Aurora-B human kinase inhibition, SPA
Format: biochemical
assay-conditions: read-out: AuroraB pIC50 (converted)
Task for the reader: assign each of the following compounds its reported IC50.

Entry O=C1CN2CCN(CC2)Cc2cc(ccc2N2CCOCC2)Nc2nccc(n2)-c2ccc(cc2)OCCN1 under AuroraB (h) (Homo sapiens, UniProt Q96GD4) had IC50 of > 10 µM

Field IC50 (system: AuroraB (h) (Homo sapiens, UniProt Q96GD4)) for entry CN(C)CCNC(=O)c1ccc2cc1CN1CCC[C@H]1C(=O)NCc1cccc(c1)-c1ccnc(n1)N2 = > 10 µM

Summary: COc1cc2cc(c1)Nc1nccc(n1)-c1ccc(cc1)CN(C)CCCNC(=O)C1CCN(CC1)C2 , AuroraB (h) (Homo sapiens, UniProt Q96GD4), IC50 = > 10 µM

Value (IC50, AuroraB (h) (Homo sapiens, UniProt Q96GD4)) for record COc1ccc2cc1CN(C)CCNC(=O)[C@@H]1CCCN1Cc1cc(cc(N3CCOCC3)c1)Nc1nccc-2n1 = 7.94 µM

Record for O=C1NCc2cccc(c2)-c2ccnc(n2)Nc2cc(CNC3CCCCC3)cc(c2)CN2CCC[C@@H]12 under target or system AuroraB (h) (Homo sapiens, UniProt Q96GD4): IC50 reported as 8.13 µM

So the reported IC50 for C[C@H]1NCc2cc(ccc2N2CCOCC2)Nc2nccc(n2)-c2ccc(cc2)OCCCNC1=O , on AuroraB (h) (Homo sapiens, UniProt Q96GD4), turned out to be 10.5 µM

# O=C1NCCCOc2cccc(c2)-c2ccnc(n2)Nc2ccc(N3CCOCC3)c(c2)CN[C@H]1CO with AuroraB (h) (Homo sapiens, UniProt Q96GD4): IC50 is > 10 µM

Reported IC50 (AuroraB (h) (Homo sapiens, UniProt Q96GD4)) for entry O=C1NCc2cccc(c2)-c2ccnc(n2)Nc2cc(ccc2Cl)CN2CCC1CC2 is > 10 µM

Assay AuroraB (h) (Homo sapiens, UniProt Q96GD4), sample COc1ccc2cc1CN1CCC(CC1)C(=O)N(C)CCN(C)c1ccc(cn1)-c1ccnc(n1)N2 , IC50 read: > 10 µM

Measured IC50 (AuroraB (h) (Homo sapiens, UniProt Q96GD4)), entry O=C1NCc2cccc(c2)-c2ccnc(n2)Nc2cc(cc(C(=O)N3CCOCC3)c2)CN2CCC[C@@H]12 : > 10 µM

Hey, AuroraB (h) (Homo sapiens, UniProt Q96GD4) data for O=C1NCCCOc2cccc(c2)-c2ccnc(n2)Nc2ccc(N3CCOCC3)c(c2)CN[C@H]1Cc1ccccc1 : IC50 came out at > 10 µM

So the reported IC50 for COc1ccc2cc1CNCCNC(=O)C1CCN(CC1)Cc1cc(ccc1N1CCOCC1)Nc1nccc-2n1 , on AuroraB (h) (Homo sapiens, UniProt Q96GD4), turned out to be 7.41 µM

# lookup: O=C1NCc2cc(ccc2N2CCOCC2)Nc2nccc(n2)-c2cccc(c2)CCN2CCC[C@@H]12 on AuroraB (h) (Homo sapiens, UniProt Q96GD4), IC50 = > 10 µM

Sample COc1ccc2cc1CN(C)CCCNC(=O)C1CCN(CC1)Cc1cc(cc(N3CCOCC3)c1)Nc1nccc-2n1 , system: AuroraB (h) (Homo sapiens, UniProt Q96GD4). Its IC50 is > 10 µM

Reported IC50 (AuroraB (h) (Homo sapiens, UniProt Q96GD4)) for entry O=C1NCCCOc2ccc(cc2)-c2ccnc(n2)Nc2ccc(N3CCOCC3)c(c2)CN2CCC[C@@H]12 is 6.31 µM
